- System: WT HIV-1 (IIIB)
- Method: microbe, parasite or virus in culture
- Format: cell-based
- Condition: ratio of CC50/EC50, IIIB
Decide using SI IIIB alone. Strictly below 400: yes (1). Equal to or above 400: no (0).

# Compound, Class
measured = [
    ("Cc1cc(C#N)cc(C)c1Oc1nc(NC2CCN(Cc3ccc(P(=O)(OCC(F)(F)F)OCC(F)(F)F)cc3)CC2)nc2ccsc12", "no (0)"),
    ("Cc1cc(/C=C/C#N)cc(C)c1Oc1nc(NC2CCN(Cc3ccc(P(=O)(OCC(F)(F)F)OCC(F)(F)F)cc3)CC2)nc2ccsc12 [15e]", "yes (1)"),
    ("Cc1cc(/C=C/C#N)cc(C)c1Oc1nc(NC2CCN(Cc3ccc(P(=O)(OC(C)(C)C)OC(C)(C)C)cc3)CC2)nc2ccsc12 [15g]", "yes (1)"),
    ("Cc1cc(C#N)cc(C)c1Oc1nc(NC2CCN(Cc3ccc(P(=O)(OC(C)C)OC(C)C)cc3)CC2)nc2ccsc12", "no (0)"),
    ("CCCCOP(=O)(OCCCC)c1ccc(CN2CCC(Nc3nc(Oc4c(C)cc(/C=C/C#N)cc4C)c4sccc4n3)CC2)cc1 [15d]", "yes (1)"),
    ("CCCCOP(=O)(OCCCC)c1ccc(CN2CCC(Nc3nc(Oc4c(C)cc(C#N)cc4C)c4sccc4n3)CC2)cc1", "yes (1)"),
    ("Cc1cc(/C=C/C#N)cc(C)c1Oc1nc(NC2CCN(Cc3ccc(P(=O)(OC(C)C)OC(C)C)cc3)CC2)nc2ccsc12 [15f]", "yes (1)"),
]

* * *

- System: HIV-1 double mutant strain F227L/V106A
- Method: microbe, parasite or virus in culture
- Type: cell-based
- Condition: Human immunodeficiency virus 1, MT4, read-out: EC50 F227L/V106A

# Compound, Target System, Units Label, Value Qualifier, EC50
data = [
    ("CCOP(=O)(OCC)c1ccc(CN2CCC(Nc3nc(Oc4c(C)cc(/C=C/C#N)cc4C)c4sccc4n3)CC2)cc1 [15c]", "HIV-1 double mutant strain F227L/V106A", "nM", "=", 27.1),
    ("Cc1cc(C#N)cc(C)c1Oc1nc(NC2CCN(Cc3ccc(P(=O)(OCC(C)C)OCC(C)C)cc3)CC2)nc2ccsc12", "HIV-1 double mutant strain F227L/V106A", "nM", "=", 104),
    ("Cc1cc(C#N)cc(C)c1Oc1nc(NC2CCN(Cc3ccc(P(C)(C)=O)cc3)CC2)nc2ccsc12", "HIV-1 double mutant strain F227L/V106A", "nM", "=", 21.5),
    ("CCCCOP(=O)(OCCCC)c1ccc(CN2CCC(Nc3nc(Oc4c(C)cc(/C=C/C#N)cc4C)c4sccc4n3)CC2)cc1 [15d]", "HIV-1 double mutant strain F227L/V106A", "nM", "=", 495),
    ("CCCCOP(=O)(OCCCC)c1ccc(CN2CCC(Nc3nc(Oc4c(C)cc(C#N)cc4C)c4sccc4n3)CC2)cc1", "HIV-1 double mutant strain F227L/V106A", "nM", "=", 248),
    ("Cc1cc(C#N)cc(C)c1Oc1nc(NC2CCN(Cc3ccc(P(=O)(O)O)cc3)CC2)nc2ccsc12", "HIV-1 double mutant strain F227L/V106A", "nM", ">", 227000),
    ("Cc1cc(/C=C/C#N)cc(C)c1Oc1nc(NC2CCN(Cc3ccc(P(=O)(OC(C)C)OC(C)C)cc3)CC2)nc2ccsc12 [15f]", "HIV-1 double mutant strain F227L/V106A", "nM", "=", 79.3),
]

* * *

- Method: Cytotoxicity in mock-infected MT-4 cells
- Condition: human
As shown below, each of these compounds has a reported CC50 at 5 days value.
Experimental Readout: CC50 at 5 days (µM)

# Compound, Units Label, Numeric Readout
records = [
    ("CCOP(=O)(OCC)c1ccc(CN2CCC(Nc3nc(Oc4c(C)cc(C#N)cc4C)c4sccc4n3)CC2)cc1 [9c]", "µM", 117),
    ("COP(=O)(OC)c1ccc(CN2CCC(Nc3nc(Oc4c(C)cc(/C=C/C#N)cc4C)c4sccc4n3)CC2)cc1 [15b]", "µM", 34.9),
    ("Cc1cc(/C=C/C#N)cc(C)c1Oc1nc(NC2CCN(Cc3ccc(P(C)(C)=O)cc3)CC2)nc2ccsc12 [15a]", "µM", 117),
]
